Reported values of IC50 for individual entries
# Assayed Target: Substance-P receptor (Homo sapiens, UniProt P25103)
# Sequence (P25103 whole entry): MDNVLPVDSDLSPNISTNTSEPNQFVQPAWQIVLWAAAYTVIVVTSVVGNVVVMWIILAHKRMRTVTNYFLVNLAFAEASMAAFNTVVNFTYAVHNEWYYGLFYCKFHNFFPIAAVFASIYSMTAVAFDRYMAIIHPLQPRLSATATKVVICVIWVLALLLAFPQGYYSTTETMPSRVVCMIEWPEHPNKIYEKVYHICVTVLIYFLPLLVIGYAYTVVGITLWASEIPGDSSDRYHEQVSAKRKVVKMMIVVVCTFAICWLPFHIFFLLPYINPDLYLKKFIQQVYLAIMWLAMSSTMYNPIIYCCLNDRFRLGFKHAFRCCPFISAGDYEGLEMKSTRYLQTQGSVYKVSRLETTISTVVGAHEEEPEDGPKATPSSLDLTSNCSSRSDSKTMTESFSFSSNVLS
Reported Metric: IC50

>  <Compound>
CC(C)N(C(C)C)C1CCC(COCc2cc(C(F)(F)F)cc(C(F)(F)F)c2)(c2ccccc2)C1 (mixture of isomers)

>  <Val>
470 nM

$$$$
>  <Compound>
FC(F)(F)c1cc(COCC2(c3ccccc3)CCC(N3CCCC3)C2)cc(C(F)(F)F)c1 (mixture of isomers)

>  <Val>
14 nM

$$$$
>  <Compound>
N[C@@H]1CC[C@](COCc2cc(C(F)(F)F)cc(C(F)(F)F)c2)(c2ccccc2)C1

>  <Val>
31 nM

$$$$
>  <Compound>
N[C@H]1CC[C@](COCc2cc(C(F)(F)F)cc(C(F)(F)F)c2)(c2ccccc2)C1

>  <Val>
19 nM

$$$$
>  <Compound>
N[C@H]1CC[C@@](COCc2cc(C(F)(F)F)cc(C(F)(F)F)c2)(c2ccccc2)C1

>  <Val>
7.5 nM

$$$$
>  <Compound>
FC(F)(F)c1cc(COCC2(c3ccccc3)CCC(N3CCOCC3)CC2)cc(C(F)(F)F)c1 (mixture of isomers)

>  <Val>
350 nM

$$$$
>  <Compound>
FC(F)(F)c1cc(COCC2(c3ccccc3)CCC(N3CCCC3)CC2)cc(C(F)(F)F)c1 (mixture of isomers)

>  <Val>
120 nM

$$$$
